Data provenance is patent US10472356B2.

system under test: human Nav1.7 (Homo sapiens)
Construct: expressed in transfected cells; host or cells: HEK293
Sequence (Q15858 whole entry): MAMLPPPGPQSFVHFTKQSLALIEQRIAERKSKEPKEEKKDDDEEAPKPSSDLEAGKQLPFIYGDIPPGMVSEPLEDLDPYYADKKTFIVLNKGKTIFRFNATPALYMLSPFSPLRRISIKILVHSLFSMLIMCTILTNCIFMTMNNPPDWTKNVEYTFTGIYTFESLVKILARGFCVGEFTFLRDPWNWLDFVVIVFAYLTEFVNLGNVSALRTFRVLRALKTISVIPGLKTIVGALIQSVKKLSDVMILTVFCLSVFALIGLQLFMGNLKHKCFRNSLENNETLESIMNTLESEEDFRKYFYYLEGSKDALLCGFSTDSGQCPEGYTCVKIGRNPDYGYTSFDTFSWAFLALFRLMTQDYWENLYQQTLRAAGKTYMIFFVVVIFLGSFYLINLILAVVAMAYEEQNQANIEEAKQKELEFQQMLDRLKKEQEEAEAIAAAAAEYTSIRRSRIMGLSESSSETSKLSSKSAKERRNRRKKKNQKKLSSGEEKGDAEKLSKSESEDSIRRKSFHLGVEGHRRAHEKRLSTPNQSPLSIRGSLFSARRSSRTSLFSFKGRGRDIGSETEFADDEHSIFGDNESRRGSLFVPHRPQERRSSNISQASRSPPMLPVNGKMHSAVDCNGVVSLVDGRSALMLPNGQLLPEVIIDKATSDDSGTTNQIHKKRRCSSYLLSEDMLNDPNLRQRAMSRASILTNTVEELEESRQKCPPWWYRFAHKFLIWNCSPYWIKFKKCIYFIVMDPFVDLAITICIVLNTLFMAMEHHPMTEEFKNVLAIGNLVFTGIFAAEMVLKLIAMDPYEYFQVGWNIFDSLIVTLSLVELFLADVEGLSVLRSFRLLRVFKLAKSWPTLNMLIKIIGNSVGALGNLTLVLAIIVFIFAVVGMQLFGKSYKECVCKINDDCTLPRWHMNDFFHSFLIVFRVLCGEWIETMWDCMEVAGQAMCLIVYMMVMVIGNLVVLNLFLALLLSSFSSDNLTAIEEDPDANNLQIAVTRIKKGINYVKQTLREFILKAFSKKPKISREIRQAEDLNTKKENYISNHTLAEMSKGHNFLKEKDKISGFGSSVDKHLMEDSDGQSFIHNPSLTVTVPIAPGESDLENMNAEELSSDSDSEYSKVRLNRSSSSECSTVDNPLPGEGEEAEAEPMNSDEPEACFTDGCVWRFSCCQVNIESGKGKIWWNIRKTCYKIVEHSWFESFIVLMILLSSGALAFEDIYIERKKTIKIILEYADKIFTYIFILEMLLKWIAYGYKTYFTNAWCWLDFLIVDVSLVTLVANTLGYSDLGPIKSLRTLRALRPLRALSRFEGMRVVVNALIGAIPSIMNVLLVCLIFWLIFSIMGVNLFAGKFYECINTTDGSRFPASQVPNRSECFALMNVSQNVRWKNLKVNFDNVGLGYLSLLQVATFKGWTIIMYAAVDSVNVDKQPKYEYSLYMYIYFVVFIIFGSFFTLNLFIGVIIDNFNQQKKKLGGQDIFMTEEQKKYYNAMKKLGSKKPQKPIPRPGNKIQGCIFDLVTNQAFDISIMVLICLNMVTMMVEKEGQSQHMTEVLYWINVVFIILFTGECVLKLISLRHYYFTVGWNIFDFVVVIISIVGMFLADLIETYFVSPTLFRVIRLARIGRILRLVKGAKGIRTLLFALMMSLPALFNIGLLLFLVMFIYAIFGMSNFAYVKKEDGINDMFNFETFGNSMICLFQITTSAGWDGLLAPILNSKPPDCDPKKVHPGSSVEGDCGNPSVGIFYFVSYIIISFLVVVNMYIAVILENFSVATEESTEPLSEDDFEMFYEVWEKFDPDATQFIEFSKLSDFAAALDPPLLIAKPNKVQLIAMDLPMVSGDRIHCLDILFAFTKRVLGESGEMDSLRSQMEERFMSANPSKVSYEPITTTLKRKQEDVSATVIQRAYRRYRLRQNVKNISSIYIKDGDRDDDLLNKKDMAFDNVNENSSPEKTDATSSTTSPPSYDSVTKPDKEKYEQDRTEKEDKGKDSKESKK
assay procedure: Nav 1.7 IWQ In Vitro Assay (IonWorks Quattro)
Type: cell-based
condition context: HEK293 cells stably transfected with human Nav 1.7; IonWorks Quattro population patch-clamp; 26th pulse to −20 mV, 5 Hz; cells unclamped 5 to 8 minutes with compound; read-out: hNav1.7 IWQ IC50
Listed compounds paired with reported pIC50
pIC50 here is simply -log10 of the concentration when that concentration is written in mol/L.

Some solved cases for reference:
compound | result
COc1cc(-c2ccc(Cl)c(C)c2)c(F)cc1-n1c2c(ccc1=O)CN(S(=O)(=O)Nc1cccnn1)CC2 (single isomer, unassigned) [Example 33-P] | 7.83
COc1cc(-c2cc(C(F)(F)F)cnc2OC)c(F)cc1-n1c2c(ccc1=O)CN(S(=O)(=O)Nc1ccon1)CC2 (racemic) [Example 23] | 8.15

Now for a further compound.
Query: # query: pIC50 of entry COc1cc(-c2ccc(Cl)c(C)c2)c(F)cc1-n1c2c(ccc1=O)CN(S(=O)(=O)Nc1ncccn1)CC2 (single isomer, unassigned) [Example 30-P]
Result: 7.88
